Assay: Human HepG2 cell viability assay in 384 well format
Assay type: toxicity, cell-based
Set-up: dose 125 nL, time 70.5 hour; concentration not given beside the values
Conditions: HepG2 cells, read-out: Inhibition
Recorded cytotoxicity at 70.5 h for the following compounds
Hi! Could you send only the number? It should be in %, unit omitted.

IN: So what's the measured cytotoxicity at 70.5 h for this one? CCOC(=O)N1CCC(NC(C)Cc2cc(C)n[nH]2)CC1 (configuration not stated)
OUT: -0.223

IN: What cytotoxicity at 70.5 h value was documented for this compound, Cc1cnn(CC2CCCN2Cc2cc(=O)n3cc(C)ccc3n2)c1 (configuration not stated) ?
OUT: -1.28

IN: What cytotoxicity at 70.5 h value was documented for this compound, CN(C)C[C@H]1C[C@@H]2CN(Cc3ccco3)C[C@@H]2O1 ?
OUT: -16.1

IN: Which cytotoxicity at 70.5 h reading was recorded for the compound Cc1cc(-c2cccnc2)nc(C2CCCN2S(C)(=O)=O)n1 (configuration not stated) ?
OUT: -3.42

IN: Returns the measured cytotoxicity at 70.5 h for the input compound. Input: Cc1nonc1CN(C)Cc1nc(-c2ccccc2Cl)oc1C
OUT: -7.91

IN: // cytotoxicity at 70.5 h lookup, key: O=C(c1ncn2c(C3CCN(CC4CC4)CC3)ccnc12)N1CCCC1
OUT: 0.745

IN: Look up cytotoxicity at 70.5 h: Cc1ncc(C(=O)N2CCCC(C(=O)c3nccn3C)C2)c(O)n1 (configuration not stated)
OUT: 9.55

IN: Can you look up the measured cytotoxicity at 70.5 h of CCN(C)C(C(=O)Nc1ccc2c(c1)CCC(=O)N2)c1ccccc1 (configuration not stated) for me?
OUT: -15.5

IN: Item O=C(CCn1ccnc1)N1CC[C@H](Oc2ccc(F)cc2)[C@@H](O)CC1 has what recorded cytotoxicity at 70.5 h?
OUT: 0.282

IN: Consider the compound shown here: CC(=O)NC(C)c1ccc(OCC2CC2)c(F)c1 (configuration not stated) What is its recorded cytotoxicity at 70.5 h?
OUT: -6.57

IN: Quick one: cytotoxicity at 70.5 h for N#Cc1cc(F)ccc1NCC1CCS(=O)(=O)CC1 ?
OUT: -1.39

IN: Need cytotoxicity at 70.5 h of Cc1ccsc1C(=O)N1C[C@@H]2CN(Cc3ccoc3)CCO[C@@H]2C1 , thanks.
OUT: -1.7

IN: What value of cytotoxicity at 70.5 h has been recorded for this entry: CNC(=O)c1cc(-n2ccnc2-c2cnc(N(C)C)nc2)ccc1OC
OUT: 3.46

IN: cytotoxicity at 70.5 h lookup needed for CN(C)c1ccc(NC(=O)N2CCCCCC2c2ccncc2)cn1 (configuration not stated) , thanks.
OUT: -10.6

IN: # lookup: cytotoxicity at 70.5 h of Cc1cc(C)n(CC2CCCN2C(=O)c2cn[nH]c2C)n1 (configuration not stated)
OUT: -1.06

IN: What value of cytotoxicity at 70.5 h has been recorded for this entry: CC(C)CSCCCNC(=O)C1CCOC1 (configuration not stated)
OUT: -5.76

IN: What does the record list as cytotoxicity at 70.5 h for COc1cccc2c1OCCCN(c1nc(C)nc3c1CCNCC3)C2 ?
OUT: -5.98

IN: Using the record for Oc1ccc(Br)c(CNc2cccc(-c3nnc[nH]3)c2)c1 , report its cytotoxicity at 70.5 h.
OUT: 1.61

IN: // query cytotoxicity at 70.5 h value for entry Cn1cc(Br)c(=O)c(NS(=O)(=O)c2cc(F)ccc2Cl)c1
OUT: 6.1

IN: Suppose we examine the compound CNCC(=O)N1CCCCC1c1nccc(C)n1 (configuration not stated) ; what cytotoxicity at 70.5 h value has been reported?
OUT: 16.2

---

Test: Human HepG2 cell viability assay in 384 well format
Assay type: toxicity, cell-based
Set-up: dose 125 nL, time 70.5 hour; concentration not given beside the values
Details: HepG2 cells, read-out: Inhibition
We begin with a simple list: items and their reported cytotoxicity at 70.5 h.
Numeric only. Scale: %

// below: answered molecules
1) CC(=O)N1[C@H](Cn2cncn2)C[C@@H]2CN(CC3CC3)CC[C@@H]21 | -1.99
2) CN1CCN(CC2CC2)C(=O)C12CCN(C(=O)CC(F)(F)F)CC2 | -4.4
3) CN1[C@@H](C(=O)NCC2CC2)C[C@H]2CN(Cc3cccc(C#N)c3)C[C@H]21 | -13.8
4) Cc1ccc(OCCC(=O)N2CCC(c3nncn3C)CC2)c(C)c1 | 1.76
5) O=C(NCc1cccnc1OCC(F)(F)F)N1CCOCC1 | 7.44

IN: Quick one: cytotoxicity at 70.5 h of CCn1cc(S(=O)(=O)NC(CO)Cc2ccccc2)cn1 (configuration not stated) ?
OUT: -7.27

IN: Entry CCn1c(CN2CCCC2)nnc1C1CCN(Cc2cc(C)no2)CC1 : reported cytotoxicity at 70.5 h = ?
OUT: -6.8

IN: # query: cytotoxicity at 70.5 h of entry Cc1ccccc1OC(C(=O)N1CCC2(CC1)CN(C)C(=O)O2)C(C)C (configuration not stated)
OUT: -4.56

IN: Give its cytotoxicity at 70.5 h value. Item: O=C(O)CSc1nnc(-c2cn[nH]c2)n1-c1ccccc1C(F)(F)F
OUT: -3.6

IN: Give the measured cytotoxicity at 70.5 h of Cn1cc(NC(=O)c2cccc(-n3cnnn3)c2)cn1 .
OUT: -13.6

IN: Would you mind telling me what cytotoxicity at 70.5 h value was observed for Cc1cnn(CC2CCCN2CC(=O)NCc2ccccn2)c1 (configuration not stated) ?
OUT: -3.32

IN: Report cytotoxicity at 70.5 h for CNC[C@H]1CC[C@H](c2cc(CN(C)C(=O)c3cnccn3)n(C)n2)CC1 please.
OUT: -8.17

IN: Requested read-out: cytotoxicity at 70.5 h. Entry: O=C(NCc1ccco1)[C@@]12CCO[C@@H]1CCN(c1ncccn1)C2
OUT: -2.22

IN: Dear colleague, I am looking for the recorded cytotoxicity at 70.5 h of the following molecule: COc1cc(NC(=O)N(C)CCC2CC2)ncn1
OUT: 19.9

IN: Item under review: NCCn1nc(C2CCN(Cc3ccc(Cl)c(Cl)c3)C2)c2nccnc21 (configuration not stated) . Reported cytotoxicity at 70.5 h?
OUT: -4.77

IN: Could you share which cytotoxicity at 70.5 h value was measured for Cc1cc(C(=O)NCc2cccnc2OC(C)C)no1 ?
OUT: -31.2

IN: Which measured cytotoxicity at 70.5 h value corresponds to Cc1noc2ncc(C(=O)NCC3CCCOC3)cc12 (configuration not stated) ?
OUT: -8.17

---

This section presents compounds with their documented cytotoxicity at 70.5 h values.
Assay: Human HepG2 cell viability assay in 384 well format
Type: toxicity, cell-based
Set-up: dose 125 nL, time 70.5 hour; concentration not given beside the values
Conditions: HepG2 cells, read-out: Inhibition
Give the quantity in %, number only.

Known results for compounds:
1. c1ccc(CCCN2CCOC(Cn3cccn3)C2)cc1 (stereo not drawn) | -6.46
2. Cn1cc(CN2CCc3ccc(=O)n(CC4CC4)c3CC2)cn1 | 4.08
3. Cc1nn(C)c(C)c1C1CCCN1C(=O)c1ccc2c(c1)OCCO2 (stereo not drawn) | -7.1
4. Cc1occc1C(=O)NCC(=O)N(C)CCCOc1ccccc1 | -1.18
5. COc1cc(C(=O)N2CCCC2c2noc(C(C)C)n2)on1 (stereo not drawn) | -2.66

IN: Return reported cytotoxicity at 70.5 h; argument: CC(C)(C)OCC1CN(CC2CC2)S(=O)(=O)c2cnccc2O1 (stereo not drawn)
OUT: -4.79

IN: Tell me the measured cytotoxicity at 70.5 h of CC(C)CCNC(=O)c1ccc(-c2ccco2)[nH]c1=O , please.
OUT: -1.63

IN: cytotoxicity at 70.5 h for CC(C)CC(NC(=O)CSc1ccc(F)c(Cl)c1)C(=O)O (stereo not drawn) ?
OUT: -18.4

IN: Fill blank: measured cytotoxicity at 70.5 h of the compound CCCS(=O)(=O)N1CCN(c2cc(-n3cnc(C)c3C)ncn2)CC1 is ____.
OUT: 2.79

IN: Please give the measured cytotoxicity at 70.5 h for this compound: O=C(Cn1nc(-c2ccc(F)cc2)oc1=O)NCc1ccc(F)cc1
OUT: 30.8

---

Assay: Human HepG2 cell viability assay in 384 well format
Assay type: toxicity, cell-based
Parameters: dose 125 nL, time 70.5 hour; concentration not given beside the values
Details: HepG2 cells, read-out: Inhibition
Measured Attribute: cytotoxicity at 70.5 h (%)
Write the number in % without appending the unit.

// known answers, use as guide
1. CCc1ncc(C(=O)N2CCN(c3cnn(C)c(=O)c3)CC2)cn1 | -5.02
2. CC(C)Cc1nc(CN2CCC(NC(=O)c3cccs3)CC2)no1 | -6.12
3. O=c1[nH]c(=O)n(CC(O)c2ccccc2Cl)cc1Cl (stereo unspecified) | -5.98

IN: Recorded cytotoxicity at 70.5 h of COc1ccc(S(=O)(=O)Nc2cccnc2-n2cncn2)c(C)c1 , please.
OUT: -8.45
